tested on: CASOB (Sicklepod); experiment: Preemergence herbicidal evaluation; assay type: in vivo, Cassia obtusifolia; conditions: rate 0.1250 kg/ha; rated 4-5 weeks after treatment
property.measured: Preemergence herbicidal rating CASOB
// no unit string in output, number only

Asked: Quick one: Preemergence herbicidal rating CASOB for CC(C)COC(=O)CN1C(=O)CSC1=Nc1cc(-n2c(=O)cc(C(F)(F)F)n(C)c2=O)c(F)cc1Cl ?
Given back: 9.0

Asked: For the compound C[C@@H](C(=O)O)N1C(=O)CS/C1=N/c1cc(-n2c(=O)cc(C(F)(F)F)n(C)c2=O)c(F)cc1Cl , what Preemergence herbicidal rating CASOB is on record?
Given back: 1.0

Asked: Preemergence herbicidal rating CASOB lookup needed for C#CCOC(=O)CC1SC(=Nc2cc(-n3c(=O)cc(C(F)(F)F)n(C)c3=O)c(F)cc2Cl)N(CC=C)C1=O (centres unmarked) , thanks.
Given back: 2.0

Asked: # get_value(readout='Preemergence herbicidal rating CASOB', item= COC(=O)COC(=O)CN1C(=O)CSC1=Nc1cc(-n2c(=O)cc(C(F)(F)F)n(C)c2=O)c(F)cc1Cl )
Given back: 0.0

Asked: Recorded Preemergence herbicidal rating CASOB for CCOC(=O)CN1CC(=O)N(CC(=O)OCC)C1=Nc1cc(-n2c(=O)cc(C(F)(F)F)n(C)c2=O)c(F)cc1Cl , please?
Given back: 0.0

Asked: Please report the recorded Preemergence herbicidal rating CASOB for Cn1c(C(F)(F)F)cc(=O)n(-c2cc(N=C3NC(=O)CS3)c(Cl)cc2F)c1=O .
Given back: 2.0

Asked: Data request, read-out Preemergence herbicidal rating CASOB, for CCOC(=O)CN1C(=O)CS(=O)(=O)C1=Nc1cc(-n2c(=O)cc(C(F)(F)F)n(C)c2=O)c(F)cc1Cl
Given back: 0.0

Asked: Look up Preemergence herbicidal rating CASOB: CCOC(=O)CN1C(=O)C(CC(=O)O)SC1=Nc1cc(-n2c(=O)cc(C(F)(F)F)n(C)c2=O)c(Cl)cc1Cl (centres unmarked)
Given back: 4.0
